# target entity: KRAS G12D binding to BRAF (Homo sapiens, UniProt P01116+P62937, G12D)
# Sequence (P01116 1-188 isoform P01116-2 G12D): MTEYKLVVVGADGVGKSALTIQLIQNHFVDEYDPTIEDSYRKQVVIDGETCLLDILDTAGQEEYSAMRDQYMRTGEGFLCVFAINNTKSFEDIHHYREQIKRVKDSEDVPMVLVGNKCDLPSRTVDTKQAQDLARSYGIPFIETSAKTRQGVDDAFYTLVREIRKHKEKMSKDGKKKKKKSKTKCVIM
# Sequence (P62937 whole entry): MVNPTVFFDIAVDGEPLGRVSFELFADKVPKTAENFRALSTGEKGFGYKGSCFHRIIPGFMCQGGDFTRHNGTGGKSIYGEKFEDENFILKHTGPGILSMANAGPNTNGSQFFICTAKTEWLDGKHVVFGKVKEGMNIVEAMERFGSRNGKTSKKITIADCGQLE
# method: KRAS-BRAF with CYPA (500 nM) interaction assay (TR-FRET), G12D
# Format: biochemical
# experimental parameters: 3 hours
// values below are reported IC50

Recorded results for 5 compounds are shown here.
{"compound": "CCn1c(-c2cc(N3CCOCC3)cnc2[C@H](C)OC)c2c3cc(c(F)cc31)-c1csc(n1)C[C@H](NC(=O)[C@H](C(C)C)N(C)C(=O)[C@H]1C[C@@H](C#CC(F)(F)F)C1)C(=O)N1CCC[C@H](N1)C(=O)OCC(C)(C)C2 (atropisomer, axis not shown; (M))", "IC50": "> 10 µM"}
{"compound": "CO[C@@H](C)c1ncc(N2CCN(C)CC2)cc1-c1c2c3cc(c(F)cc3n1CC(F)(F)F)-c1csc(n1)C[C@H](NC(=O)[C@H](C(C)C)N(C)C(=O)[C@H]1C[C@@H](C#Cc3ncccn3)C1)C(=O)N1CCC[C@H](N1)C(=O)OCC(C)(C)C2 (relative stereo)", "IC50": "9.95 µM"}
{"compound": "CO[C@@H](C)c1ncc(N2CCN(C)CC2)cc1-c1c2c3cc(c(F)cc3n1CC(F)(F)F)-c1csc(n1)C[C@H](NC(=O)[C@@H](CC(=O)N1CC(C#CC(F)(F)F)C1)C(C)C)C(=O)N1CCC[C@H](N1)C(=O)OCC(C)(C)C2", "IC50": "> 10 µM"}
{"compound": "CO[C@@H](C)c1ncc(N2CCN(C)CC2)cc1-c1c2c3cc(c(F)cc3n1CC(F)(F)F)-c1csc(n1)C[C@H](NC(=O)[C@H](C(C)C)N(C)C(=O)[C@H]1C[C@H](C#CC(F)(F)F)C1)C(=O)N1CCC[C@H](N1)C(=O)OCC(C)(C)C2 (atropisomer, axis not shown; (M))", "IC50": "> 10 µM"}
{"compound": "CO[C@@H](C)c1ncc(N2CCN(C)CC2)cc1-c1c2c3cc(c(F)cc3n1CC(F)(F)F)-c1csc(n1)C[C@H](NC(=O)[C@H](C(C)C)N(C)C(=O)[C@H]1C[C@@H](C#Cc3ncc(C(F)(F)F)cn3)C1)C(=O)N1CCC[C@H](N1)C(=O)OCC(C)(C)C2 (atropisomer, axis not shown; (M))", "IC50": "> 10 µM"}

Ask: Quickly give me recorded IC50 for CO[C@@H](C)c1ncc(N2CCN(C)CC2)cc1-c1c2c3cc(c(F)cc3n1CC(F)(F)F)-c1csc(n1)C[C@H](NC(=O)[C@H](C(C)C)N(C)C(=O)[C@H]1C[C@@H](C#CC(F)(F)F)C1)C(=O)N1CCC[C@H](N1)C(=O)OCC(C)(C)C2 (atropisomer, axis not shown; (M))
Reply: > 10 µM
